From: patent US20200157194A1

# target: T1, human GREM1 (hGREM1-His; SEQ ID NO: 595) (human, UniProt O60565 25-184)
# T1 construct: also called biotin-hGREM1-His; recombinant human GREM1 protein
# T1 sequence: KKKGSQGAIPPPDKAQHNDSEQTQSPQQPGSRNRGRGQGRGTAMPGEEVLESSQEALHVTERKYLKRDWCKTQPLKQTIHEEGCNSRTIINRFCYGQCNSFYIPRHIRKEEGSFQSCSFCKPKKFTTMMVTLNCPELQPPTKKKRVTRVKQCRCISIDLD
# assaySummary: competition ELISA, biotin-hGREM1-His (100 pM) binding to coated hBMP4
Provide the reported pIC50 of each item.
Just so you know, pIC50 here is -log10 of the concentration in molar units; reply with that number alone.

Incoming: What value of measured pIC50 is listed for H4H2895N (antibody, human IgG4, V domains shown, H4H prefix = human IgG4 Fc) VH: EVQLVESGGGLVQPGGSLRLSCAASGFTVSSNYMSWVRQAPGKGLEWVSVIYSGGNTYYADSVKGRFTISRHNSKNTLYLQMNSLRAEDTAVYYCARDLGIKSDYWGQGTLVTVSS VL: EIVLTQSPDFQSVTPKEKVTITCRASQSIGTTLHWYQQKPDQSPKLLIKYVSQSLSGVPSRFSGSGSGTDFTLTINSLEAEDAATYYCHQSSSLPWTFGQGTKVEIK ?
Outgoing: 10.44

Incoming: What value of measured pIC50 is listed for H4H6251P (antibody, human IgG4, V domains shown, H4H prefix = human IgG4 Fc) VH: QVQLVESGGGVVQPGKSLRLSCAASGFTFSRYGMHWVRQAPGKGLEWVAVIWYDGSNKYYADSVKGRFTISRDNSKNTLYLQMNSLRADDTAMYYCARDDYGDSPGFDFWGQGTLVTVSS VL: EIVMTQSPATLSVSPGERATLSCRASQSVSSNLAWYQQKPGQAPRLLIYDASTRATGIPARFSGTGSGTEFTLTISSLQSEDFALYYCQQYDDWPPWTFGQGTKVEIK ?
Outgoing: 9.96

Incoming: What value of measured pIC50 is listed for H4H6269P (antibody, human IgG4, V domains shown, H4H prefix = human IgG4 Fc) VH: QVQLQESGPGLVKPSQTLSLTCTVSGGSISSGGYYWTWIRQHPGKGLEWIGYIYYSGSTYYNPSLKSRVTMSVDTSKNQFSLKLSSVTAADTAVYYCARLLDFDYWGQGTLVTVSS VL: AIQMTQSPSSLSASVGDRVTITCRASQGIRNDLGWYQQKPGKAPKLLIYAASSLQSGVPSRFSGSGSGRDFTLTISSLQPEDFASYYCLQDHNYPLTFGGGTKVEIK ?
Outgoing: 10.59

Incoming: What value of measured pIC50 is listed for H4H6240P (antibody, human IgG4, V domains shown, H4H prefix = human IgG4 Fc) VH: QVQLVESGGGVVQPGRSLRLSCAASGFTFSSYGMHWVRQAPGKGLEWVAVIWYDGSNKYYADSVKGRFIISRDNSKNMMYLQMNSLRAEDTAVYYCAREDNWNYAFDYWGQGTLVTVSS VL: EIVMTQSPATLSVSPGERATLSCRASQSISSNLAWYQQKPGQAPRLLIYDSSTRATGIPARFSGSGSGTQFTLTISSLQSEDFALYYCQQYSNWPPFTFGPGTKVDIK ?
Outgoing: 9.19
